Assay: amyloid nucleation score (Sup35N fusion, yeast selection) (log enrichment); library NNK3; higher = more nucleation; inactive = no reads after selection;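 also: zero at mode of non-aggregating sequences after 7 days selection at 30°C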
Readout label: amyloid nucleation score

# annotated cases, reported amyloid nucleation score shown
- Substance: "PNARKMCMLFVTECFKVVPK"
  amyloid nucleation score: "inactive"
- Substance: "LSEIGIPVAVSFKPADSLGL"
  amyloid nucleation score: "inactive"
- Substance: "QYGSLGSTYTSAYLWRLYVL"
  amyloid nucleation score: "inactive"
- Substance: "NGILKPETVRQI"
  amyloid nucleation score: "inactive"
- Substance: "LDMQEPPVNAVRHYLSL"
  amyloid nucleation score: "inactive"

Input line: Recorded amyloid nucleation score for DSLSGYSVPYWSSFMNPWTN , please?
Output line: 0.677

Input line: Recorded amyloid nucleation score of WYRYSGGYNWP , please.
Output line: 0.396

Input line: Need amyloid nucleation score, item SRTGVC
Output line: -0.227

Input line: Give the measured amyloid nucleation score of KVCHSWVWHILGSLDYITRG .
Output line: inactive

---

Test: amyloid nucleation score (Sup35N fusion, yeast selection) (log enrichment); library NNK1; higher = more nucleation; inactive = no reads after selection
Consider the following substances and their measured amyloid nucleation score readings.
Lab note: write the figure by itself, no unit.

Input line: Param item = SSFRVGTIVTNSAWRWSPCW ; retrieve measured amyloid nucleation score.
Output line: 5.4

Input line: Please report the recorded amyloid nucleation score for SDRGSKPMSVYNLRC .
Output line: 0.305

Input line: Which amyloid nucleation score value is on record for RLGCGSM ?
Output line: 0.769

Input line: Given SLGKLYAGDGVCMGTLPDSK , state its recorded amyloid nucleation score.
Output line: 0.017

Input line: // query amyloid nucleation score value for entry VLPRVWCCNADNDSIVDFRG
Output line: 2.35

Input line: Requested field: amyloid nucleation score. Item: ICNFERILRNMVFAWWYKID
Output line: 0.621

Input line: State the recorded amyloid nucleation score for this entry: SCSVYTGYSYGLRYNFDLVS
Output line: -1.81

Input line: May I ask what amyloid nucleation score has been recorded for IHWFVFYFLKKFCYYRSYAR ?
Output line: 0.389

Input line: Give the measured amyloid nucleation score of WFASYCISFN .
Output line: 2.27

Input line: Please look up its amyloid nucleation score: DYKFRDRL
Output line: 0.364

Input line: Any idea what amyloid nucleation score was measured for SVNLGGHAGCCGCWAYGGFR ?
Output line: 0.851

---

Test: amyloid nucleation score (Sup35N fusion, yeast selection) (log enrichment); library NNK3; higher = more nucleation; inactive = no reads after selection
Readout label: amyloid nucleation score

- Substance: "MEYWYYDMD"
  Result value: "inactive"
- Substance: "SKVGSWYDAT"
  Result value: -0.506
- Substance: "VNNKIVVWTIMSSNDERLPS"
  Result value: 1.54
- Substance: "FILFRYVTNALRKSAWVRLC"
  Result value: "inactive"
- Substance: "FWHILLEVRLAVWSQMRDMG"
  Result value: "inactive"

Input line: What value of amyloid nucleation score has been recorded for this entry: YCCAKL
Output line: inactive

Input line: Look up amyloid nucleation score: FNFVLALI
Output line: 1.69

Input line: Look at this substance and give its reported amyloid nucleation score. LIPQRDNMGGGFRTFSLCYV
Output line: inactive

Input line: What value of measured amyloid nucleation score is listed for TCCYRYYLLILAVSGVFIDT ?
Output line: inactive

---

Test: amyloid nucleation score (Sup35N fusion, yeast selection) (log enrichment); library NNK3; higher = more nucleation; inactive = no reads after selection
Readout label: amyloid nucleation score

Use the examples below as a reference point.
- Sequence input: "TSWTGWVRCHIGSSNISALT"
  amyloid nucleation score: "inactive"
- Sequence input: "YSVFGVNKQMAFAVCDWHHC"
  amyloid nucleation score: 0.477
- Sequence input: "SWFVHKFSIRYNLFDFSYIF"
  amyloid nucleation score: "inactive"
- Sequence input: "ITQLFSSLRADYAAQYYLGV"
  amyloid nucleation score: "inactive"
- Sequence input: "IGIDMMMESKLYSCCNLDMY"
  amyloid nucleation score: 1.38

Input line: Please report the recorded amyloid nucleation score for VFFVNHFNVWLERM .
Output line: inactive

Input line: # amyloid nucleation score lookup, item RYCIVLTDNVNTLHNLIIMV
Output line: inactive

Input line: What value of amyloid nucleation score has been recorded for this entry: LYYSWKKEYQFIWVVHTFAK
Output line: inactive

---

Experiment: amyloid nucleation score (Sup35N fusion, yeast selection) (log enrichment); library NNK3; higher = more nucleation; inactive = no reads after selection
Readout label: amyloid nucleation score

Before answering, review these 5 worked examples.
- Substance: "MLSSCRVFRLFCFNCVTLNR"
  amyloid nucleation score: 0.816
- Substance: "LCMFPLIWFILLFRFFKLWG"
  amyloid nucleation score: "inactive"
- Substance: "VSANSMFIRGLIDSILAELA"
  amyloid nucleation score: "inactive"
- Substance: "LKADRVVSFFWLCSFIFTSI"
  amyloid nucleation score: "inactive"
- Substance: "MSILMMSL"
  amyloid nucleation score: "inactive"

Input line: Consider the substance shown here: WRKTSVMFADSGIV What is its recorded amyloid nucleation score?
Output line: inactive

---

Experiment: amyloid nucleation score (Sup35N fusion, yeast selection) (log enrichment); library NNK2; higher = more nucleation; inactive = no reads after selection
Below, each of the substances is paired with its reported amyloid nucleation score value.
Keep the answer to the number alone.

Would you please look over these solved cases?
- Substance: "PNERFVSTLWCRDVCDPWSW"
  amyloid nucleation score: 0.798
- Substance: "HTKVRGKRLCGDWSVRISCS"
  amyloid nucleation score: 0.733
- Substance: "LSRCWVMSQQCKKSAGVFYA"
  amyloid nucleation score: -0.026
- Substance: "EIWMSLSLNAEISYVYYSQS"
  amyloid nucleation score: -0.658
- Substance: "GWVKTLEGLLMCLVVCNTVM"
  amyloid nucleation score: 2.98
- Substance: "RTGRRSAFCTSVRRLNPDCL"
  amyloid nucleation score: 1.17

Input line: Which amyloid nucleation score value belongs to DETYHKYDRFWLGVMSFGFY ?
Output line: -0.787

Input line: Return reported amyloid nucleation score; argument: ALSYFTGCRF
Output line: 0.766

Input line: May I ask what amyloid nucleation score has been recorded for SSTHVPLRVFHGEIMWQQIL ?
Output line: -0.291

---

Assay: amyloid nucleation score (Sup35N fusion, yeast selection) (log enrichment); library NNK1; higher = more nucleation; inactive = no reads after selection
Readout label: amyloid nucleation score
Number only, please.

- Substance: "ETYGCFRYWISSLPVVEVSF"
  Result value: -0.368
- Substance: "TPFRDKHGGVWVV"
  Result value: 0.505
- Substance: "ENDVSQPVRLTVVTRWSWYT"
  Result value: 0.229
- Substance: "SSFARL"
  Result value: 1.12
- Substance: "RLHMRRRPFVNTHVS"
  Result value: 0.54

Now consider a different substance.
Input line: // lookup amyloid nucleation score for CNTPSTCNCVIVRPSYPSQY
Output line: -0.088

---

Assay: amyloid nucleation score (Sup35N fusion, yeast selection) (log enrichment); library NNK1; higher = more nucleation; inactive = no reads after selection
Readout label: amyloid nucleation score

Consider the reported amyloid nucleation score for these substances:
- Substance: "SECYFSVWFANTALQNRV"
  Result value: 0.034
- Substance: "TCNRHSDTEGLC"
  Result value: -1.13
- Substance: "GMLNIDSVPDTYGLSQPVVP"
  Result value: -0.498
- Substance: "KSITWSKGDFARSTLLVNIC"
  Result value: 0.397
- Substance: "RVIWEGNAVQTSAWGSADPK"
  Result value: -0.264

Input line: Endpoint output: amyloid nucleation score of GTGCFRCTVSTVGSVFIRDE . Value?
Output line: -0.27

Input line: Please give the measured amyloid nucleation score for this substance: ECFDANIWFWSCPMVHYG
Output line: 0.904

Input line: What value of amyloid nucleation score has been recorded for this entry: NKLCTR
Output line: inactive

Input line: # input substance: CCRGCPERLLSWGGSPRATE ; wanted: its amyloid nucleation score
Output line: -0.334

---

Listing of entries alongside the reported amyloid nucleation score.
Experiment: amyloid nucleation score (Sup35N fusion, yeast selection) (log enrichment); library NNK1; higher = more nucleation; inactive = no reads after selection
Lab note: write the figure by itself, no unit.

Consider the reported amyloid nucleation score for these substances:
- Substance: "LDSDGVASYDTRMSIRWYIE"
  amyloid nucleation score: 2
- Substance: "IDGLNNYTSYNGTR"
  amyloid nucleation score: -0.219

Input line: # query: amyloid nucleation score of entry FYWMMANRNTQCVVCFAVLR
Output line: -0.754

Input line: Entry under review: VSKRFRFLRTLFIEECDLRH . Reported amyloid nucleation score?
Output line: 0.576

Input line: Find the recorded amyloid nucleation score belonging to IMYSQNEGDMYESSFV and report it.
Output line: -0.551

Input line: Item QTTTLYRFCCEWQSPASVVM has what recorded amyloid nucleation score?
Output line: 0.333

Input line: Consider the substance shown here: GSYECV What is its recorded amyloid nucleation score?
Output line: 0.734
